Molecular target: T1, purified sIL-5Rα (Asp1-Asn313 of SEQ ID NO: 66) (Homo sapiens (Human), UniProt Q01344 21-333)
T1 construct: also called the purified sIL-5Rα
T1 sequence: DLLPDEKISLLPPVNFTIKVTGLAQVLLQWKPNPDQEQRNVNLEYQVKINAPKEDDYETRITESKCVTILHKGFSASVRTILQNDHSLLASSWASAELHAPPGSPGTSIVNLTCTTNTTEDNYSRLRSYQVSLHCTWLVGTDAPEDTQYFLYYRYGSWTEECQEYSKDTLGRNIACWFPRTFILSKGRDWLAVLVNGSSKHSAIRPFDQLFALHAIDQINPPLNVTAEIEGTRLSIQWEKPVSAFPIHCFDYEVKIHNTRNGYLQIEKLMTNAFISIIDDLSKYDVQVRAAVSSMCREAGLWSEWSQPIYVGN
Test: BLI (Octet QKe), antibody on AHC sensor, purified sIL-5Rα in solution, 1:1 model
Protocol: Specifically, lx kinetic buffer was prepared by diluting 10× kinetic buffer (ForteBio, 18-1105) in PBS. […] Affinity was calculated with Octet Data Analysis software 11.0 in a 1:1 binding model.
Listed here are binders together with their documented kon.
Number in M⁻¹ s⁻¹, nothing else.

Solved entries:
{"BINDER": "5R65.10 (antibody, IgG1, V domains shown, IgG1) VH: QVQLVQSGAEVKKPGSSVKVSCKASGYTFTSYWINWVRQAPGQGLEWIGHIYPNKNENYYNHKFKDKATLTVDKSTNTAYMELSSLRSEDTAVYYCTREYYGRSYYAAMDYWGQGTTLTVSS VL: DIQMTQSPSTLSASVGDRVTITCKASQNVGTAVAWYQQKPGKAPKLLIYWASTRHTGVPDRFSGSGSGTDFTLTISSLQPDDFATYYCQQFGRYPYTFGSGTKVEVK", "QUANTITY_KIND": "kon", "RESULT": 24400}
{"BINDER": "5R65.7 (antibody, IgG1, V domains shown, IgG1) VH: QVQLVQSGAEVKKPGSSVKVSCKASGYTFTSYWINWVRQAPGQGLEWIGHIYPNKNENYYNHKFKDKATLTVDKSTNTAYMELSSLRSEDTAVYYCTREFYGRQYYQAMDYWGQGTTLTVSS VL: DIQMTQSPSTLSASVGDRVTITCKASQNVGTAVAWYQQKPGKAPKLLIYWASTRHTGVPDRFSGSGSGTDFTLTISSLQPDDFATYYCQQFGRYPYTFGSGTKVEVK", "QUANTITY_KIND": "kon", "RESULT": 31700}

Next item in the queue.
Noted for 5R65.18 (antibody, IgG1, V domains shown, IgG1) VH: QVQLVQSGAEVKKPGSSVKVSCKASGYTFTSYWINWVRQAPGQGLEWIGHIYPNKNENYYNHKFKDKATLTVDKSTNTAYMELSSLRSEDTAVYYCTREYYGRTYYSAMDYWGQGTTLTVSS VL: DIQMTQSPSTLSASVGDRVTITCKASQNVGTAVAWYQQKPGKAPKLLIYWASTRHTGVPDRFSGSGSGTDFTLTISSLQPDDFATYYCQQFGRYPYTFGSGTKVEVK : its kon reads 22400
